Where do the numbers come from? From patent US20170037111A1.

# studySystem: HLA-A*02:01 (Homo sapiens, UniProt P04439, D140Y/D185E/D98H/E176V/E277Q/G131W/G231S/I119V/I121R/I166T/I218V/L300P/L318F/N151K/N90K/P208A/P217A/Q86G/Q94H/R138H/R169H/T345S)
# procedureSummary: MHC binding assay (UV-ligand exchange, β2m ELISA, peptide exchange yield)
# recordedConditions: MHC class I binding score; binding to HLA-A*02:01 ranged by peptide exchange yield (UV-ligand exchange, β2m ELISA)
propertyName: Peptide exchange

50 (SLSELEALM; listed as Homo sapiens) [compound 50]	″+++″ (≧50% = +++)
358 (ALDEYTSEL; listed as Homo sapiens) [compound 358]	″++++″ (≧75% = ++++)
517 (LLMPIPEGLTL; listed as Homo sapiens) [compound 517]	″+++″ (≧50% = +++)
3 (SLASKLTTL; listed as Homo sapiens) [compound 3]	″++++″ (≧75% = ++++)

----------
# studySystem: HLA-A*02:01 (Homo sapiens, UniProt P04439, D140Y/D185E/D98H/E176V/E277Q/G131W/G231S/I119V/I121R/I166T/I218V/L300P/L318F/N151K/N90K/P208A/P217A/Q86G/Q94H/R138H/R169H/T345S)
# procedureSummary: MHC binding assay (UV-ligand exchange, β2m ELISA, peptide exchange yield)
# recordedConditions: MHC class I binding score; binding to HLA-A*02:01 ranged by peptide exchange yield (UV-ligand exchange, β2m ELISA)
propertyName: Peptide exchange

Look over these answered cases.
374 (FLLQQHLISA; listed as Homo sapiens) [compound 374]	″++″ (≧20% = ++)
538 (LLLAHIIAL; listed as Homo sapiens) [compound 538]	″++″ (≧20% = ++)
98 (LIIDQADIYL; listed as Homo sapiens) [compound 98]	″+++″ (≧50% = +++)
474 (YLDPALELGPRNV; listed as Homo sapiens) [compound 474]	″+++″ (≧50% = +++)
19 (FMVDNEAIYDI; listed as Homo sapiens) [compound 19]	″++++″ (≧75% = ++++)

Give me Peptide exchange for each of these substances, listed below.
1. 121 (GVVDPRAISVL; listed as Homo sapiens) [compound 121]
2. 218 (SALEELVNV; listed as Homo sapiens) [compound 218]
3. 558 (GLLENIPRV; listed as Homo sapiens) [compound 558]
4. 42 (VLLQKIVSA; listed as Homo sapiens) [compound 42]
5. 329 (FLVTLNNVEV; listed as Homo sapiens) [compound 329]

″++″ (≧20% = ++)
″++″ (≧20% = ++)
″+++″ (≧50% = +++)
″+++″ (≧50% = +++)
″++++″ (≧75% = ++++)

Give me Peptide exchange for each of these substances, listed below.
1. 86 (NLIGKIENV; listed as Homo sapiens) [compound 86]
2. 214 (FLLDLDPLLL; listed as Homo sapiens) [compound 214]
3. 367 (SLQNHNHQL; listed as Homo sapiens) [compound 367]

″+++″ (≧50% = +++)
″+++″ (≧50% = +++)
″+++″ (≧50% = +++)

Give me Peptide exchange for each of these substances, listed below.
1. 502 (RLLAQVPGL; listed as Homo sapiens) [compound 502]
2. 8 (FTLGNVVGMYL; listed as Homo sapiens) [compound 8]
3. 313 (VLFDDELLMV; listed as Homo sapiens) [compound 313]
4. 373 (SLLEDKGLAEV; listed as Homo sapiens) [compound 373]
5. 176 (YLMEGSYNKVFL; listed as Homo sapiens) [compound 176]

["″+++″ (≧50% = +++)", "″++++″ (≧75% = ++++)", "″+++″ (≧50% = +++)", "″++″ (≧20% = ++)", "″++″ (≧20% = ++)"]

Give me Peptide exchange for each of these substances, listed below.
1. 256 (FLPPEHTIVYI; listed as Homo sapiens) [compound 256]
2. 16 (VLFQGQASL; listed as Homo sapiens) [compound 16]
3. 444 (GLLRDEALAEV; listed as Homo sapiens) [compound 444]

″+++″ (≧50% = +++)
″+++″ (≧50% = +++)
″+++″ (≧50% = +++)

----------
# studySystem: HLA-A*02:01 (Homo sapiens, UniProt P04439, D140Y/D185E/D98H/E176V/E277Q/G131W/G231S/I119V/I121R/I166T/I218V/L300P/L318F/N151K/N90K/P208A/P217A/Q86G/Q94H/R138H/R169H/T345S)
# procedureSummary: MHC binding assay (UV-ligand exchange, β2m ELISA, peptide exchange yield)
# recordedConditions: MHC class I binding score; binding to HLA-A*02:01 ranged by peptide exchange yield (UV-ligand exchange, β2m ELISA)
propertyName: Peptide exchange

434 (KVSNSGITRV; listed as Homo sapiens) [compound 434]	″++″ (≧20% = ++)
436 (HLAEVSAEV; listed as Homo sapiens) [compound 436]	″+++″ (≧50% = +++)
175 (YLFENISQL; listed as Homo sapiens) [compound 175]	″+++″ (≧50% = +++)
209 (KLIESKHEV; listed as Homo sapiens) [compound 209]	″++″ (≧20% = ++)
54 (SLLEQGKEPWMV; listed as Homo sapiens) [compound 54]	″+++″ (≧50% = +++)

Give me Peptide exchange for each of these substances, listed below.
1. 346 (LLDSKVPSV; listed as Homo sapiens) [compound 346]
2. 135 (ALSEVDFQL; listed as Homo sapiens) [compound 135]
3. 199 (ALQDVPLSSV; listed as Homo sapiens) [compound 199]

1: ″+++″ (≧50% = +++); 2: ″+++″ (≧50% = +++); 3: ″+++″ (≧50% = +++)

Give me Peptide exchange for each of these substances, listed below.
1. 331 (KVDTVWVNV; listed as Homo sapiens) [compound 331]
2. 393 (GLLDTQTSQVLTA; listed as Homo sapiens) [compound 393]
3. 463 (SLVESHLSDQLTL; listed as Homo sapiens) [compound 463]

["″+++″ (≧50% = +++)", "″++″ (≧20% = ++)", "″+++″ (≧50% = +++)"]

----------
# studySystem: HLA-A*02:01 (Homo sapiens, UniProt P04439, D140Y/D185E/D98H/E176V/E277Q/G131W/G231S/I119V/I121R/I166T/I218V/L300P/L318F/N151K/N90K/P208A/P217A/Q86G/Q94H/R138H/R169H/T345S)
# procedureSummary: MHC binding assay (UV-ligand exchange, β2m ELISA, peptide exchange yield)
# recordedConditions: MHC class I binding score; binding to HLA-A*02:01 ranged by peptide exchange yield (UV-ligand exchange, β2m ELISA)
propertyName: Peptide exchange

Look over these answered cases.
388 (SLTIDGIRYV; listed as Homo sapiens) [compound 388]	″+++″ (≧50% = +++)
327 (GLAPFTEGISFV; listed as Homo sapiens) [compound 327]	″+++″ (≧50% = +++)
454 (KLPPPPPQA; listed as Homo sapiens) [compound 454]	″+++″ (≧50% = +++)
258 (ELAERVPAI; listed as Homo sapiens) [compound 258]	″++″ (≧20% = ++)
613 (RLLPPGAVVAV; listed as Homo sapiens) [compound 613]	″+++″ (≧50% = +++)
552 (GLLDLPFRVGV; listed as Homo sapiens) [compound 552]	″++++″ (≧75% = ++++)
352 (SLLELLHIYV; listed as Homo sapiens) [compound 352]	″+++″ (≧50% = +++)
437 (SMAPGLVIQAV; listed as Homo sapiens) [compound 437]	″+++″ (≧50% = +++)

Give me Peptide exchange for each of these substances, listed below.
1. 140 (YMDAPKAAL; listed as Homo sapiens) [compound 140]
2. 375 (SLTETIEGV; listed as Homo sapiens) [compound 375]
3. 495 (FIFSEKPVFV; listed as Homo sapiens) [compound 495]
4. 118 (KLIDNNINV; listed as Homo sapiens) [compound 118]
5. 146 (SLATAGDGLIEL; listed as Homo sapiens) [compound 146]

1. ″++″ (≧20% = ++)
2. ″++″ (≧20% = ++)
3. ″+++″ (≧50% = +++)
4. ″+++″ (≧50% = +++)
5. ″++″ (≧20% = ++)

----------
# studySystem: HLA-A*02:01 (Homo sapiens, UniProt P04439, D140Y/D185E/D98H/E176V/E277Q/G131W/G231S/I119V/I121R/I166T/I218V/L300P/L318F/N151K/N90K/P208A/P217A/Q86G/Q94H/R138H/R169H/T345S)
# procedureSummary: MHC binding assay (UV-ligand exchange, β2m ELISA, peptide exchange yield)
# recordedConditions: MHC class I binding score; binding to HLA-A*02:01 ranged by peptide exchange yield (UV-ligand exchange, β2m ELISA)
propertyName: Peptide exchange

Look over these answered cases.
510 (KLYSVVSQL; listed as Homo sapiens) [compound 510]	″++″ (≧20% = ++)
623 (YLVEDIQHI; listed as Homo sapiens) [compound 623]	″+++″ (≧50% = +++)
615 (VLPPDTDPA; listed as Homo sapiens) [compound 615]	″++″ (≧20% = ++)
513 (SLWPSPEQL; listed as Homo sapiens) [compound 513]	″++″ (≧20% = ++)
547 (TLDITPHTV; listed as Homo sapiens) [compound 547]	″+++″ (≧50% = +++)

Give me Peptide exchange for each of these substances, listed below.
1. 61 (FLQGYQLHL; listed as Homo sapiens) [compound 61]
2. 565 (ALQETPTSV; listed as Homo sapiens) [compound 565]
3. 577 (VMFEDGVLMRL; listed as Homo sapiens) [compound 577]
4. 487 (LLINSVFHV; listed as Homo sapiens) [compound 487]
5. 56 (KLYEGIPVLL; listed as Homo sapiens) [compound 56]

″++++″ (≧75% = ++++)
″++″ (≧20% = ++)
″+++″ (≧50% = +++)
″+++″ (≧50% = +++)
″++++″ (≧75% = ++++)
